Below are GI50 values measured for HCT-15.
Report the value in µM with no unit label.

GI50 reported for this molecule CN(C)CC1CCC/C(=C\c2ccc(OC(=O)/C=C/c3ccc(Cl)c(Cl)c3)cc2)C1=O (stereo not given) : 2.45

GI50 reported for this molecule O=C(CCc1ccc(O)c(O)c1)NCCc1cc(OCc2ccccc2)cc(OCc2ccccc2)c1 : 3.03

* * *

- Tested on: NCI/ADR-RES
- protocolSummary: NCI tumour cell line growth inhibition, 48 h
Calls of active or inactive are those of the source. Rule as the data show it: active = GI50 up to about 1.1 µM and inactive = higher.
Please provide measured GI50 for the entries that follow.

GI50 reported for this compound Cc1ccnc2nc(-c3ccc(Cl)cc3)cc(O)c12 : 3.88 µM (inactive)

GI50 reported for this compound CCc1nnc2sc(-c3ccc(-c4ccccc4[N+](=O)[O-])o3)nn12 : 27 µM (inactive)

GI50 reported for this compound N#C/C(C(=O)Nc1ccc(Cl)cc1)=C(/N)N1CCCCC1 : 79.3 µM (inactive)

GI50 reported for this compound CCOC(=O)c1cnc2oc(/C=N/N3CC(CN4CCOCC4)OC3=O)cc2c1O (stereo unspecified) : > 100 µM (inactive)

GI50 reported for this compound CC#CC(O)(C(=O)OCCCN(C)C)C1CCCCC1 (stereo unspecified) : > 100 µM (inactive)

GI50 reported for this compound O=c1[nH]nc(N/N=C\c2ccc(Cl)cc2)c2ccccc12 : 19.6 µM (inactive)

* * *

- Test system: MOLT-4
- protocolSummary: NCI tumour cell line growth inhibition, 48 h
Active and inactive are the calls of the source. Rule as the data show it: active = GI50 up to about 1.1 µM and inactive = higher.
observable: GI50

GI50 reported for this molecule COc1cc(OC)cc(OCc2ccc3nc(-c4ccccc4)c(Cl)nc3c2)c1 : 25.9 µM (inactive)

GI50 reported for this molecule OC(CC(c1ccccc1)c1ccc(Cl)cc1)c1ccc(Cl)cc1 (stereo not given) : 34.2 µM (inactive)

GI50 reported for this molecule CCOC(=O)/C=C(\C(=O)OCC)n1cc(C)c(=O)n(Cc2cnnn2COCCOC(C)=O)c1=O : 2.57 µM (inactive)

GI50 reported for this molecule Cn1c(=O)c2c(n(C)c1=O)n1c(=O)c3ccccc3nc1n2C : > 100 µM (inactive)

GI50 reported for this molecule Cn1c(COC(=O)NC2CCCCC2)c(COC(=O)NC2CCCCC2)c2ccc3cc(C=O)ccc3c21 : > 100 µM (inactive)

GI50 reported for this molecule CC1=CCCC(OC(N)=O)C1 (stereo not given) : > 100 µM (inactive)

GI50 reported for this molecule O=C(CCc1ccc(O)c(O)c1)NCCc1cc(OCc2ccccc2)cc(OCc2ccccc2)c1 : 2.52 µM (inactive)

GI50 reported for this molecule C=CC(C)(C)[C@@]12CC3C(=O)N[C@@H](Cc4ccccc4)C(=O)N3[C@@H]1N(C(C)=O)c1ccccc12 (stereo not given in full) : 27.4 µM (inactive)

GI50 reported for this molecule O=C(/C=C1/Nc2ccc([N+](=O)[O-])cc2N/C1=C/C(=O)c1ccc(Cl)cc1)c1ccccc1 : > 100 µM (inactive)

GI50 reported for this molecule CC(C)(C)OC(=O)N1[C@@H]2Cc3ccc(N)cc3[C@@]1(C)c1ccccc12 : 19 µM (inactive)

* * *

Please provide measured GI50 for the entries that follow.
- Test system: 786-0
- protocolSummary: NCI tumour cell line growth inhibition, 48 h
Activity calls are given as the source filed them. Cut-off read from the data, not from the text of the source: active = GI50 up to about 1.1 µM and inactive = higher.

GI50 reported for this compound CCN(CC)CCSc1c2ccccc2nc2c(OC)ccc(OC)c12 : 4.13 µM (inactive)

GI50 reported for this compound CS(=O)(=O)c1ccc(-c2cc(-c3ccc(S(C)(=O)=O)cc3)[n+](-c3cc(-c4ccc(S(C)(=O)=O)cc4)c([O-])c(-c4ccc(S(C)(=O)=O)cc4)c3)c(-c3ccc(S(C)(=O)=O)cc3)c2)cc1 : > 100 µM (inactive)

GI50 reported for this compound CC(C)(C)C1CCC2c3c([nH]c4ccccc34)C3C(=O)N(c4ccc([N+](=O)[O-])cc4)C(=O)C3C2C1 (stereo not drawn) : 5.11 µM (inactive)

GI50 reported for this compound CCN=C=NCCCN(C)C : > 100 µM (inactive)

GI50 reported for this compound CCOC(=O)NN(C(=O)OCC)C(C(=O)c1ccccc1)N(NC(=O)OCC)C(=O)OCC : > 100 µM (inactive)

GI50 reported for this compound COc1cc([C@@H]2c3cc4c(cc3[C@@H](OC3OC5COC(C)OC5C(OC(=O)CN5CCN(C)CC5)C3OC(=O)CN3CCN(C)CC3)C3COC(=O)[C@@H]32)OCO4)cc(OC)c1OC(=O)CN1CCN(C)CC1 (stereo partly drawn) : 21.9 µM (inactive)

GI50 reported for this compound COC(=O)c1c(C(=O)OC)c(C(c2ccccc2)c2ccccc2)n(-c2ccccc2)c1Cl : > 10 µM (inactive)

GI50 reported for this compound OC(CC(CC(O)(C(F)(F)Cl)C(F)(F)Cl)=NNc1ccccc1)(C(F)(F)Cl)C(F)(F)Cl : 4.54 µM (inactive)

* * *

Please provide measured GI50 for the entries that follow.
- Test system: MCF7
- protocolSummary: NCI tumour cell line growth inhibition, 48 h
The source made the active and inactive calls. Rule as the data show it: active = GI50 up to about 1.1 µM and inactive = higher.

GI50 reported for this compound O=C1C=CC(=O)C1(Br)Br : 11 µM (inactive)

GI50 reported for this compound CC(C)(C)C1CCC2c3c([nH]c4ccccc34)C3C(=O)N(c4ccc([N+](=O)[O-])cc4)C(=O)C3C2C1 (centres undefined) : 2.79 µM (inactive)

GI50 reported for this compound COC1=CC(=O)C2=C(C[C@@]3(C)C(=C2)C(CO)=CC[C@H]3O)C1=O : 16 µM (inactive)

GI50 reported for this compound CC(CCC=O)CCOCc1ccccc1 (centres undefined) : 2.8 µM (inactive)

* * *

- Tested on: Malme-3M
- protocolSummary: NCI tumour cell line growth inhibition, 48 h
Activity calls are given as the source filed them. Cut-off read from the data, not from the text of the source: active = GI50 up to about 1.1 µM and inactive = higher. Where a SMILES comes first, the peptide text is derived from it. Non-standard residues stand in square brackets, D forms with d. Residues, ends and D or L forms follow the SMILES beside them. The star is where a group is joined. *: point of attachment. Bn2Val = CC(C)[C@@H](C(=O)*)N(Cc1ccccc1)Cc1ccccc1; NMeV = CN[C@H](C(=O)O)C(C)C; X32 = COc1ccc(CN*)c(OC)c1; dNMeA = CN[C@H](C)C(=O)O; Cbz = O=C(OCc1ccccc1)*
Hello, when you answer, please use one of the following outcomes: active, inactive

Call for entry CCOC(=O)CCC(NC(=O)C(Cc1ccccc1)NC(=O)OCc1ccccc1)C(=O)OCC (stereo not drawn) (Cbz-Phe-Glu(OEt)-OEt; configuration not given here) : inactive

Call for entry CC(C)c1ccc(NC(=S)NC(=O)c2ccccc2)cc1 : inactive

Call for entry COC(=O)CN1Cc2cc(C)cc(c2O)CN(CC(=O)OC)Cc2cc(C)cc(c2O)CN(CC(=O)OC)Cc2cc(C)cc(c2O)CN(CC(=O)OC)Cc2cc(C)cc(c2O)C1 : inactive

Call for entry Cc1nc2cc(Nc3ccccc3C(=O)O)ccc2s1 : inactive

Call for entry COC1=CC(=O)C2=C(C[C@@]3(C)C(=C2)C(CO)=CC[C@H]3O)C1=O : inactive

Call for entry COc1ccc(CNC(=O)[C@@H]2CCCN2C(=O)[C@@H](C)N(C)C(=O)[C@H](C(C)C)N(C)C(=O)[C@@H](NC(=O)[C@H](C(C)C)N(Cc2ccccc2)Cc2ccccc2)C(C)C)c(OC)c1 (Bn2Val-V[NMeV][dNMeA]P-X32) : inactive

Call for entry CO/C(N)=C(C#N)/N=C/c1ccc2ccccc2c1 : inactive

Call for entry Nc1ccc(C(=O)CC(N)C(=O)O)cc1O (centres undefined) : inactive

Call for entry O=C(C[C@@H]1NCCC[C@H]1O)Cn1cnc2cc(Br)c(Cl)cc2c1=O : active

* * *

- System: A498
- protocolSummary: NCI tumour cell line growth inhibition, 48 h
Active and inactive are the calls of the source. Cut-off read from the data, not from the text of the source: active = GI50 up to about 1.1 µM and inactive = higher.
Hello, when you answer, please use one of the following outcomes: active, inactive

Call for entry CCOC(=O)c1c(NS(=O)(=O)c2ccccc2)sc2c1CCCC2 : inactive

Call for entry c1ccc2c(c1)-c1ccccc1C2NC1=NCCO1 : inactive

Call for entry C/C(=N\NC(=S)NC(CCC(=O)O)C(=O)O)c1ccccn1 (centres undefined) : inactive

Call for entry CC(=O)Oc1c(C)cc2c(c1C)C(C)(C)CN2C(=O)C(C)(C)C : inactive

Call for entry CN(CC(=O)O)c1ncc2c(n1)-c1ccccc1OC2 : inactive

Call for entry COC1=CC(=O)C2=C(C[C@@]3(C)C(=C2)C(CO)=CC[C@H]3O)C1=O : inactive

Call for entry O=[N+]([O-])/C(C(Cl)=C(Cl)Cl)=C(/Sc1ccccc1)N1CCOCC1 : inactive

Call for entry COc1ccc2c(c1)[C@@H](NC(C)=O)CCc1cc(OC)c(OC)c(OC)c1-2 : active

Call for entry Cc1ccnc2nc(-c3ccc(Cl)cc3)cc(O)c12 : inactive

Call for entry CSc1nc2c(nc(N)n2C2OC(CO)C(O)C(O)C2O)c(=O)[nH]1 (centres undefined) : inactive

Call for entry CCOC(=O)c1cnc2oc3ccc(O)cc3c2c1-c1ccccc1 : inactive

Call for entry CCc1n[nH]c(=O)n1NC(=O)/C=C\C(=O)O : inactive

Call for entry COc1cc2c(cc1OCCCN1CCN(C)CC1)N=C[C@@H]1CCCN1C2=O : inactive

Call for entry Cc1cc(S(=O)(=O)O)c(NC(=O)C(=O)C2C=CCS2(=O)=O)cc1Cl (centres undefined) : inactive

Call for entry C=CCOC(=O)N1c2ccc(O)cc2[C@@]23O[C@@]24[C@@H]1C#C/C=C\C#C[C@]3(O)C(=O)C[C@@H]4C : inactive

Call for entry CC(=O)N1N=C(c2ccc3ccccc3c2O)CC1c1cccs1 (centres undefined) : inactive

Call for entry CCOc1ccc2nc3nc(O)nc(C)c3c(NCCCN(CC)CC)c2c1 : inactive

Call for entry CC(CCC(=O)O)[C@H]1CCC2[C@H]3C(CC(=O)[C@@]21C)[C@@]1(C)CCC(O)C[C@H]1C[C@@H]3O (some centres undefined) : inactive

Call for entry CCOC(=O)CCc1c(C)c2ccc(O)cc2oc1=O : inactive

Call for entry CC(=O)c1c(O)cc(O)c(-c2c(C)cc(O)c3c2C(=O)c2cccc(O)c2C3=O)c1O : inactive

Call for entry O=C(O)CCC(NC(=O)c1ccc(Nc2nc3ccccc3nc2-c2cccs2)cc1)C(=O)O (centres undefined) : inactive

Call for entry COC(=O)c1c(C(=O)OC)c(C(c2ccccc2)c2ccccc2)n(-c2ccccc2)c1Cl : inactive

Call for entry Cc1ccc(S(=O)(=O)n2cc(C#N)c(C#N)c2)cc1 : inactive

Call for entry COc1cc2c(cc1Cc1c(F)cccc1Cl)nc(-c1c(F)cccc1Cl)n2Cc1c(F)cccc1Cl : inactive

Call for entry CS(=O)(=O)Nc1ccc2c(c1)N(S(C)(=O)=O)CC2COS(C)(=O)=O (centres undefined) : inactive

Call for entry Cc1ccc2nc(NC(=O)C(=O)C3C(=O)NC(=S)NC3=O)sc2c1 : inactive

Call for entry C/C(=N\NC(=S)N(C)C)c1ncc[nH]1 : inactive

Call for entry COc1ccccc1/[N+]([O-])=C/c1ccccc1OC(=S)S : inactive

Call for entry Cc1cc2[nH]c3c(C#N)c(-c4ccccc4)c(/C=N/c4ccc(Cl)cc4)c(=O)n3c2cc1C : inactive

Call for entry OCC(CCc1c[nH]c2ccccc12)c1c[nH]c2ccccc12 (centres undefined) : inactive

Call for entry O=C(O)c1ccccc1NC(=S)c1ccccc1 : inactive

Call for entry O=c1[nH]c(Nc2nc3ccccc3[nH]2)nc2c1CCC2 : inactive

Call for entry CC12CC(C#N)(C#N)C(C#N)(CO1)C(=N)O2 (centres undefined) : inactive

Call for entry COc1ccc(C2=NN(C(=N)S)C(c3ccccc3)C2)cc1 (centres undefined) : inactive
